Protocol Description: In vivo pharmacokinetics after intravenous tail vein injection
Parameters: species or system mouse
Recorded Conditions: mouse, plasma; 1 mg/kg intravenous; C57/BL6 mice
Quantity Measured: half-life (h)
All answers are understood in h, so give the number only.

Problem: Fill in: half-life of `CCCCCC/C=N/C(=N)NC(=N)Nc1ccc(Cl)cc1` is ___
Solution: 6.76

Where do these numbers come from? They come from patent US20250100962A1.
